target: rat mGlu 1a receptor (Rattus norvegicus); construct: expressed in transfected cells; host or cells: EBNA cells (transient transfection); assay: [Ca2+]i measurements (FLIPR, Fluo-3 AM) on mGlu 1a transfected EBNA cells; agonist or antagonist (against 10 μM glutamate); format: cell-based; conditions: table of substituents of the Examples, column Remarks
Sequence (P23385 19-1199): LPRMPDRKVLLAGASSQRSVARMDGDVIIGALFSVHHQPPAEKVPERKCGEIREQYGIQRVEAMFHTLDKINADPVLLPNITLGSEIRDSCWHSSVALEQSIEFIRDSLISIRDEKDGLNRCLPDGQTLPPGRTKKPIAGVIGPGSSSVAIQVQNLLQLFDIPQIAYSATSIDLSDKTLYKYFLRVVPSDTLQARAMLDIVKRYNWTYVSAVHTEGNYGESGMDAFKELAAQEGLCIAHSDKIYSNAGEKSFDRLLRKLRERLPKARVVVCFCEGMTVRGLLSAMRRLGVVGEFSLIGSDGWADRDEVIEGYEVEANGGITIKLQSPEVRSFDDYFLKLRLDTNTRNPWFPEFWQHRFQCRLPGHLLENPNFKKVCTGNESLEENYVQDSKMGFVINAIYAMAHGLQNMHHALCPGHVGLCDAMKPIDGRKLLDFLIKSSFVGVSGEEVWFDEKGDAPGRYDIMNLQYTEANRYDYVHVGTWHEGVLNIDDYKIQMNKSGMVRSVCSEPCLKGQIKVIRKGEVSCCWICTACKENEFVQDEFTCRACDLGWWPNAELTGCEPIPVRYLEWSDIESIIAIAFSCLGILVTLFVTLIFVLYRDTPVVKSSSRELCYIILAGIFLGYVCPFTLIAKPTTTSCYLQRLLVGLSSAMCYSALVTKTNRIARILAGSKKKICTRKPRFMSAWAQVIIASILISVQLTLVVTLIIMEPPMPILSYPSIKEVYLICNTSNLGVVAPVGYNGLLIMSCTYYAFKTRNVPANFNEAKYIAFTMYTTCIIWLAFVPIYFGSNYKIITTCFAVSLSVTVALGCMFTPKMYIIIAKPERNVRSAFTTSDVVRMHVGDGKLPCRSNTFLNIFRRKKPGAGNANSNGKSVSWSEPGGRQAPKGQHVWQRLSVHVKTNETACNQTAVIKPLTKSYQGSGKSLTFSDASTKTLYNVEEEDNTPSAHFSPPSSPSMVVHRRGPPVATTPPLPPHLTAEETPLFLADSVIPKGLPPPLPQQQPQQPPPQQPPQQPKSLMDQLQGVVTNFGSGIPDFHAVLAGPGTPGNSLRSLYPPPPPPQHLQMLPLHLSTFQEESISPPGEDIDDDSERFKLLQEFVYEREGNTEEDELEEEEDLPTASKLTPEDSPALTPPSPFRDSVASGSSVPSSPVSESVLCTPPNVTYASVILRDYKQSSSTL
readout.type: Remarks (agonist / antagonist)

Worked examples follow.
Cc1cccc(C2CCCN2S(=O)(=O)c2ccc(Cl)cc2)c1 (racemic) :: Agonist
Cc1cccc(C2CCCN2S(=O)(=O)c2ccc(F)cc2)c1 (racemic) :: Antagonist
O=S(=O)(c1ccc(Cl)cc1)N1CCCC1c1ccccc1 (racemic) :: Agonist
Cc1ccc(S(=O)(=O)N2CCCC2c2ccc(F)c(F)c2)cc1 (racemic) :: Agonist
Cc1ccc(C2CCCN2S(=O)(=O)c2ccc(F)cc2)cc1 (racemic) :: Antagonist

*Q* Give its Remarks (agonist / antagonist) value. Item: O=S(=O)(c1ccc(Cl)cc1)N1CCCC1c1ccncc1 (racemic)
*A* Agonist

*Q* # lookup: Remarks (agonist / antagonist) of Cc1ccc(S(=O)(=O)N2CCCC2c2ccc(N(C)C)c(F)c2)cc1 (racemic)
*A* Antagonist

*Q* What value of measured Remarks (agonist / antagonist) is listed for COc1ccc(C2CCCN2S(=O)(=O)c2ccc(C)cc2)cc1 (racemic) ?
*A* Agonist

*Q* Name the reported Remarks (agonist / antagonist) value associated with the molecule O=S(=O)(c1ccc(F)cc1)N1CCCC1c1cccs1 (racemic)
*A* Antagonist

*Q* What does the record list as Remarks (agonist / antagonist) for `Cc1ccc(S(=O)(=O)N2CCC[C@@H]2c2ccc(F)cc2)cc1` ?
*A* Agonist

*Q* State the recorded Remarks (agonist / antagonist) for this entry: O=S(=O)(c1ccc(CO)cc1)N1CCCC1c1ccc(F)cc1 (racemic)
*A* Agonist
